molecules and their reported IC50
molecular target: KAT-5 (Homo sapiens (Human)); assay: KAT-5 biochemical inhibition assay (SAMDI mass spectrometry)
Sequence (Q92993 other isoform, or with tags, fused parts or gaps): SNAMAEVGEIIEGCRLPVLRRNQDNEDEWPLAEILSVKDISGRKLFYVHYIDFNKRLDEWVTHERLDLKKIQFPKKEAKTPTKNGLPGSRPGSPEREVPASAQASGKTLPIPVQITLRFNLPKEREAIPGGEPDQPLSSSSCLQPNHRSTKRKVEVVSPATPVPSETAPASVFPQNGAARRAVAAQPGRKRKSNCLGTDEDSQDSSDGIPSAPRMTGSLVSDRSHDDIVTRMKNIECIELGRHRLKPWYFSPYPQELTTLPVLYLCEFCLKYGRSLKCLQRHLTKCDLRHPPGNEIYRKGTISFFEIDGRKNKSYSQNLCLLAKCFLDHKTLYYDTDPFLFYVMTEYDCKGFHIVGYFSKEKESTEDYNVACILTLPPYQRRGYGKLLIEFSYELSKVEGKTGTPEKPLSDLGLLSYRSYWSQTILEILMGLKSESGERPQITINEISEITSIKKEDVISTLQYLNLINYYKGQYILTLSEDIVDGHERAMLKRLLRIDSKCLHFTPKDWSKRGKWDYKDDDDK

Examples with their reported IC50 follow.
Given the entry `COc1ccc(CN(C)C(=O)N[C@H]2C[C@H](CS(=O)(=O)NNC(=O)c3cc(-c4cn(C)cn4)cc(Cl)c3F)C2)cc1` , what IC50 was observed with KAT-5 (Homo sapiens (Human))?
< 10 µM

Form: Entry = Cn1cnc(-c2cc(Cl)c(F)c(C(=O)NNS(=O)(=O)CC3CCC(OCCO)CC3)c2)c1 (stereo not drawn) | System = KAT-5 (Homo sapiens (Human)) | IC50 = ____
< 10 µM

So what IC50 did CN1CCC(CS(=O)(=O)NNC(=O)c2cc(-c3cn(C)cn3)cc(Cl)c2F)C1 (stereo not drawn) get with KAT-5 (Homo sapiens (Human))?
10 to 50 µM

Recall the recorded IC50 for Cn1cnc(-c2cc(Cl)c(F)c(C(=O)NNS(=O)(=O)CC3CCCO3)c2)c1 (stereo not drawn) with KAT-5 (Homo sapiens (Human)) and state it.
< 10 µM

API: value(readout=IC50, system=KAT-5 (Homo sapiens (Human))) for record `CCn1cnc(-c2cc(Cl)c(F)c(C(=O)NNS(=O)(=O)CC3CCCCC3)c2)c1C`
10 to 50 µM

Others:
Param readout= IC50; system= KAT-5 (Homo sapiens (Human)); entry= COCC(=O)N1CCCC(CS(=O)(=O)NNC(=O)c2cc(-c3cn(C)cn3)cc(C)c2F)C1 (stereo not drawn) ; returns value.
< 10 µM

Give the reported IC50 for `Cn1cc(-c2cc(Cl)c(F)c(C(=O)NNS(=O)(=O)C3CCOCC3)c2)nc1Cl` (system: KAT-5 (Homo sapiens (Human))).
> 100 µM

Look up IC50 with KAT-5 (Homo sapiens (Human)) for this molecule: `Cc1cc(-c2cn(CCO)cn2)cc(C(=O)NNS(=O)(=O)C2CCOCC2)c1F`
50 to 100 µM
